Reference for the values: patent US8481537B2

experimental_system: Caspase-8 (Homo sapiens, UniProt Q14790)
Construct: p10 and p20 subunits (Thornberry, N. A. et al, Nature, 1992, 356, 768) were expressed in E. coli; made in house; host or cells: E. coli
Sequence (Q14790 217-374 limits assumed, species assumed): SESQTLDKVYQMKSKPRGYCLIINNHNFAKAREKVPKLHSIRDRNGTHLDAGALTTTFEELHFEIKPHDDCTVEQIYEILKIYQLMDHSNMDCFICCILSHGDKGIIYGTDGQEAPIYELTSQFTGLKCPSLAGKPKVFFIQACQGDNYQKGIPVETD
Sequence (Q14790 385-479 limits assumed, species assumed): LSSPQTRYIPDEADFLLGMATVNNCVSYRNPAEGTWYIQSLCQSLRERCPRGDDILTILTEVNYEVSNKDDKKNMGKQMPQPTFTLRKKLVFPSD
experiment_description: Caspase inhibitory effect, fluorescent substrate AcDEVD-AFC
Type: biochemical
cond: pH 7.5; 2.1 nM caspase-8, 50 μM AcDEVD-AFC, 25° C., pH 7.50; read-out: Caspase-8 Kobs/[I] (converted)
readout_label: kinact/KI (M⁻¹ s⁻¹)

molecule | readout_label | endpoint_unit | observed_result
CCC(C(=O)NC(CC(=O)O)C(=O)CF)c1ccnn(Cc2ccccc2C(C)(C)C)c1=O (stereo not shown) | kinact/KI | M⁻¹ s⁻¹ | 63300
CCC(C(=O)NC(CC(=O)O)C(=O)CF)c1ccnn(Cc2cccc3ccccc23)c1=O (stereo not shown) | kinact/KI | M⁻¹ s⁻¹ | 56700

1 = CCC(C(=O)NC(CC(=O)O)C(=O)CF)c1c(Cl)cnn(Cc2ccccc2)c1=O (stereo not shown)
2 = CCC(C(=O)NC(CC(=O)O)C(=O)CF)c1ccnn(Cc2cccc(C(C)(C)C)c2)c1=O (stereo not shown)
3 = CC[C@H](C(=O)N[C@@H](CC(=O)O)C(=O)COc1c(F)c(F)cc(F)c1F)c1ccnn(Cc2cccc(C(C)(C)C)c2)c1=O
4 = CCC(C(=O)N[C@@H](CC(=O)O)C(=O)COP(=O)(c1ccccc1)c1ccccc1)c1ccnn(Cc2ccccc2C(C)(C)C)c1=O (stereo partly shown)
5 = CC[C@H](C(=O)N[C@@H](CC(=O)O)C(=O)COc1c(F)cccc1F)c1ccnn(Cc2ccccc2C(C)(C)C)c1=O
Hello, I need these entries ordered by kinact/KI, highest reading first. Thanks! Submit the labels in the order that the ranking request calls for.
4, 2, 1, 5, 3
(4: 56700 M⁻¹ s⁻¹, 2: 23300 M⁻¹ s⁻¹, 1: 6830 M⁻¹ s⁻¹, 5: 3170 M⁻¹ s⁻¹, 3: 900 M⁻¹ s⁻¹)

a = CCC(C(=O)NC(CC(=O)O)C(=O)CF)c1ccnn(Cc2coc(C)n2)c1=O (stereo not shown)
b = CCC(C(=O)NC(CC(=O)O)C(=O)CF)c1ccnn(Cc2cccc(OC)c2)c1=O (stereo not shown)
c = CCC(C(=O)NC(CC(=O)O)C(=O)CF)c1c(C)cnn(-c2ccccc2)c1=O (stereo not shown)
d = CCC(C(=O)NC(CC(=O)O)C(=O)CF)c1c(OC)cnn(Cc2ccccc2)c1=O (stereo not shown)
e = CCC(C(=O)NC(CC(=O)O)C(=O)CF)c1ccnn(Cc2ccccc2Cl)c1=O (stereo not shown)
Order by kinact/KI, ascending. Submit the labels in the order that the ranking request calls for.
c, d, a, b, e
(c: 967 M⁻¹ s⁻¹, d: 3830 M⁻¹ s⁻¹, a: 11500 M⁻¹ s⁻¹, b: 20000 M⁻¹ s⁻¹, e: 73300 M⁻¹ s⁻¹)

* * *

experimental_system: Caspase-8 (Homo sapiens, UniProt Q14790)
Construct: p10 and p20 subunits (Thornberry, N. A. et al, Nature, 1992, 356, 768) were expressed in E. coli; made in house; host or cells: E. coli
experiment_description: Caspase inhibitory effect, fluorescent substrate AcDEVD-AFC
Format: biochemical
cond: pH 7.5; 2.1 nM caspase-8, 50 μM AcDEVD-AFC, 25° C., pH 7.50; read-out: Caspase-8 Kobs/[I] (converted)
readout_label: kinact/KI (M⁻¹ s⁻¹)

molecule | endpoint_unit | kinact/KI
CC[C@H](C(=O)N[C@@H](CC(=O)O)C(=O)COc1c(F)ccc(F)c1F)c1ccnn(Cc2ccccc2C(C)(C)C)c1=O | M⁻¹ s⁻¹ | 7830
CCC(C(=O)NC(CC(=O)O)C(=O)CF)c1ccnn(Cc2ccc3ccccc3c2)c1=O (stereo not shown) | M⁻¹ s⁻¹ | 15500
CCC(C(=O)NC(CC(=O)O)C(=O)CF)c1c(C)cnn(Cc2ccccc2)c1=O (stereo not shown) | M⁻¹ s⁻¹ | 7330

1 = CC[C@@H](C(=O)N[C@@H](CC(=O)O)C(=O)COc1c(F)cccc1F)c1ccnn(Cc2ccccc2C(C)(C)C)c1=O
2 = CCC(C(=O)NC(CC(=O)O)C(=O)CF)c1ccnn(Cc2nccc3ccccc23)c1=O (stereo not shown)
3 = CC[C@H](C(=O)N[C@@H](CC(=O)O)C(=O)COc1c(F)c(F)cc(F)c1F)c1ccnn(Cc2ccccc2C(C)(C)C)c1=O
Hello, I need these entries ordered by kinact/KI, highest reading first. Thanks! Submit the labels in the order that the ranking request calls for.
2, 1, 3
